- EXPERIMENTAL_SYSTEM: T1, human 4-1BB, full-length, expressed on cells (human, UniProt Q07011 24-255)
- T1 construct: also called CD137; TNFRSF9
- T1 sequence (Q07011 24-255): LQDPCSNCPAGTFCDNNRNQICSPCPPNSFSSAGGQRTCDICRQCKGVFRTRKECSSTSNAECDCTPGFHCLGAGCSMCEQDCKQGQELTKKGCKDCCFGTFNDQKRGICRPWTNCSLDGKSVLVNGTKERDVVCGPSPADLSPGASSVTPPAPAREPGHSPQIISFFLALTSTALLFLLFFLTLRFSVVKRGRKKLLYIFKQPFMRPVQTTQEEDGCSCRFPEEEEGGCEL
- PROTOCOL_NOTES: flow cytometry, Jurkat-4-1BB
Overview of recorded EC50 for various binders
// note: answer is a bare numeric in nM

# BINDER, EC50, nM
data = [
    ("v28701 (antibody, human IgG1, kappa, L234A L235A, V domains shown, also called humanized 5G8 H2L3) VH: QVQLQESGPGLVKPSETLSLTCTVSGFSLISYGVHWVRQPPGKGLEWLGVIWSGGSTDYNPSLKSRVTISKDTSKNQFSLKLSSVTAADTAVYYCARNPLTATVMDYWGQGTLVTVSS VL: DIQMTQSPSSLSASVGDRVTVTCRASQNVGTNVAWYQQKPGKAPKALIYSASYRDSGVPSRFSGSGSGTDFTLTISSVQPEDFATYYCQQYNSYPLTFGGGTKLEIKR", 30),
]

Return EC50 for the following binder: v28685 (antibody, human IgG1, kappa, L234A L235A, V domains shown, also called humanized 1G1 H1L3) VH: EVQLVESGGGLVQPGGSLRLSCAASGFTFSEFGMHWVRQAPGKGLEWVSYISSGGSTIYYADSVKGRFTISRDNAKNSLYLQMNSLRAEDTAVYYCARDWVDYWGQGTLVTVSS VL: EIVMTQSPATLSLSPGERVTLSCKASENVGSYVSWYQQKPGQAPRLLIYGASNRYTGVPARFSGSGSGTDFTLTISSVEPEDFAVYYCGQSYSYPLTFGGGTKLELKR
0.0551

Return EC50 for the following binder: v28683 (antibody, human IgG1, kappa, L234A L235A, V domains shown, also called humanized 1G1 H1L1) VH: EVQLVESGGGLVQPGGSLRLSCAASGFTFSEFGMHWVRQAPGKGLEWVSYISSGGSTIYYADSVKGRFTISRDNAKNSLYLQMNSLRAEDTAVYYCARDWVDYWGQGTLVTVSS VL: EIVLTQSPATLSLSPGERATLSCKASENVGSYVSWYQQKPGQAPRLLIYGASNRYTGIPARFSGSGSGTDFTLTISSLEPEDFAVYYCGQSYSYPLTFGGGTKVEIKR
0.223
